Biological target: T1, Aβ1–42 fibrils (UniProt P05067 672-713)
T1 construct: amyloid-β peptide Aβ1–42, cut from the amyloid precursor protein (APP), in fibrillar form; Aggregated (fibrillar) state of the same peptide as m15; also called fibrillar Aß1–42; Aβ fibrils; source: bought: JPT Biotech or Bachem AG (HPLC purified peptide); fibrils formed at 37°C (7 days in PBS pH 7.4 for SPR; five days in 50 mM Tris-HCl pH 7.4 for ELISA)
T1 sequence (P05067 672-713): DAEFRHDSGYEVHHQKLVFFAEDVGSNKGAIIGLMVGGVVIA
Assay: SPR; Biacore 1000; Aβ1–42 fibrils (6800 RU) immobilised on a CM5 chip by amine coupling; PBS pH 7.4; analytes 50 µg/ml, 5 µl/min for 2 minutes, ambient temperature; semi-quantitative: response in % of ACI-80-Kϕ
Settings: both partners purified
Square brackets hold non-standard residues; d marks the D form. Primed or numbered codes have the meaning given here. Ends that are not written are not given here. FITC′ = fluorescein isothiocyanate (ϕ)
Observable: Dissociation [%] (response 60 s after end of injection, relative to ACI-80-Kϕ) (%)
Write down the numeric answer in % and omit the unit.

QUERY: Value lookup for Dissociation [%] (response 60 s after end of injection, relative to ACI-80-Kϕ); key = [dP][dS][dH][dY][dR][dH][dI][dS][dP][dA][dQ][dK][dK](FITC′) (also: [19F]-4-fluorobenzoyl label, place not given here, D-enantiomeric derivative of ACI-80 (D1): Q1P, V12K, added C-terminal lysine, fluorinated; also called D1-Q1P-V12K-K[^19F]ϕ; source: synthetic peptide, reacted with [^19F]-N-succinimidyl-4-fluorobenzoate (SFB), HPLC purified) [[^19F]-ACI-89-Kϕ]
RESULT: 0

QUERY: What do you have for [dQ][dS][dH][dY][dR][dH][dI][dS][dP][dA][dQ][dK][dK](FITC′) (also: [19F]-4-fluorobenzoyl label, place not given here, D-enantiomeric derivative of ACI-80 (D1): V12K, added C-terminal lysine, fluorinated; The text says V12K was made to enable fluorination; also called D1-V12K-K[^19F]ϕ; source: synthetic peptide, reacted with [^19F]-N-succinimidyl-4-fluorobenzoate (SFB), HPLC purified) [[^19F]-ACI-87-Kϕ] ?
RESULT: 67

QUERY: What do you have for [dP][dS][dF][dY][dR][dH][dI][dS][dP][dA][dQ][dV][dK](FITC′) (D-enantiomeric derivative of ACI-80 (D1): Q1P, H3F, added C-terminal lysine; also called D1-Q1P-H3F-Kϕ; source: synthetic peptide (JPT Peptide Technologies GmbH, Berlin)) [ACI-86-Kϕ] ?
RESULT: 40

QUERY: What do you have for [dS][dF][dY][dR][dH][dI][dS][dP][dA][dQ][dV][dK](FITC′) (D-enantiomeric derivative of ACI-80 (D1): N-terminal glutamine deleted (Q1X), H3F, added C-terminal lysine; also called D1-Q1X-H3F-Kϕ; source: synthetic peptide (JPT Peptide Technologies GmbH, Berlin)) [ACI-85-Kϕ] ?
RESULT: 40
